Reference source for all entries: patent US5039805A

assay: LD50 in the mouse (acute toxicity); conditions: in vivo, po, perorally
measurementType: LD50

Q: Entry "N=C(N)NCCCCCC(=O)Nc1cccc(C(=O)NCCC(=O)O)c1" : reported LD50 = ?
Result: > 2000 mg/kg

====

target: fibrinogen receptor, glycoprotein IIb/IIIa (Homo sapiens, UniProt P05106+P08514); construct: obtained from Triton X-100 extracts of human blood platelets; test: inhibition of the binding of fibrinogen to the immobilized fibrinogen receptor (ELISA); settings: fibrinogen binding to immobilized glycoprotein IIb/IIIa from human blood platelets, read-out: IC50 (inhibition of the binding of fibrinogen to the immobilized receptor by 50%)
Sequence (P08514 32-887 limits assumed): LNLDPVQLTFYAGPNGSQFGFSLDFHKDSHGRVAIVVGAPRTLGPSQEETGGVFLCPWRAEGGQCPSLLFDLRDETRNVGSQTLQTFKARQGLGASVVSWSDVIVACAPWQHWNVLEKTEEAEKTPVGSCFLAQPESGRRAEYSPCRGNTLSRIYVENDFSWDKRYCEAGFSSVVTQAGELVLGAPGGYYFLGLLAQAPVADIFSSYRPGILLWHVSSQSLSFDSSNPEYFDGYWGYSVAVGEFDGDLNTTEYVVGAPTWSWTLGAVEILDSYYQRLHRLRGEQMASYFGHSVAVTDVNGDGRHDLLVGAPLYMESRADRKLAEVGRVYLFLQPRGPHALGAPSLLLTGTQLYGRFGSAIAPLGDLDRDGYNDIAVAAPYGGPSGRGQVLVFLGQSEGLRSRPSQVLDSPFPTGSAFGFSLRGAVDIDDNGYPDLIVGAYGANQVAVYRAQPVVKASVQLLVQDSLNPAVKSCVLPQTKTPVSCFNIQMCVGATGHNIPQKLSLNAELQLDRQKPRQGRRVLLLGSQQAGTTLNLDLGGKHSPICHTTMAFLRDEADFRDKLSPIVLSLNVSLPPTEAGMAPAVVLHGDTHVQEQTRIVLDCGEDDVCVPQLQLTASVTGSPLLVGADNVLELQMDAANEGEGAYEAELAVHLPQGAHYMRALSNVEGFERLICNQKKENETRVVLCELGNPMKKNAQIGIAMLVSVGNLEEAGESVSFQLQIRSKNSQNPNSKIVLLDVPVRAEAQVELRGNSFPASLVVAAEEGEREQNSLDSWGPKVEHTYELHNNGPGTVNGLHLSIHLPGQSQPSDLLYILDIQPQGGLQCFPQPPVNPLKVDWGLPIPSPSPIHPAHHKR
Sequence (P08514 891-1039 limits assumed): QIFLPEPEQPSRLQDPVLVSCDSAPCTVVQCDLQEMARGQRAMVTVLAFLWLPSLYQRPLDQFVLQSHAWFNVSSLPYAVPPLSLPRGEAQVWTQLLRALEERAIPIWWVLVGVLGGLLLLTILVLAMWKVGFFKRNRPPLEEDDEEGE
Sequence (P05106 27-788): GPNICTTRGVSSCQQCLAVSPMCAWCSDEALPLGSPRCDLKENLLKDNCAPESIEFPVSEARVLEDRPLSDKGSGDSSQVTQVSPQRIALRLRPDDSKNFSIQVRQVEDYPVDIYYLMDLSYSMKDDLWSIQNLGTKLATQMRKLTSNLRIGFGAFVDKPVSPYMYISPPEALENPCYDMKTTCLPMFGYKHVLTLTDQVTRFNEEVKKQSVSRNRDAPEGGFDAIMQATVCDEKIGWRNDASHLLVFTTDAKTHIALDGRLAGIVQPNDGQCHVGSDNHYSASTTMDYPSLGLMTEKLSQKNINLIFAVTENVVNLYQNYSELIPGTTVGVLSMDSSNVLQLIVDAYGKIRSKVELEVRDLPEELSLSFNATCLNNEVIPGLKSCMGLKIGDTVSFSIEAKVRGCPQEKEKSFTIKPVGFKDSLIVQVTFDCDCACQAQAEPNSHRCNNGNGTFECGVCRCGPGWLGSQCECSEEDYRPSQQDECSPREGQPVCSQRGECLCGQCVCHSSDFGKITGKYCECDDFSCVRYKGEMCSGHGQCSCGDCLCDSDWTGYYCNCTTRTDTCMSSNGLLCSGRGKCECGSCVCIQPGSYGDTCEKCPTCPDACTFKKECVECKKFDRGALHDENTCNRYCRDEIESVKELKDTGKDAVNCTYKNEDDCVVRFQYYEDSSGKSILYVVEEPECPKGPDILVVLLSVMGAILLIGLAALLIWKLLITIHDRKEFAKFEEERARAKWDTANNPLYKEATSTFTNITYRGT
measurementType: IC50 (nM)
Your answer is read as nM, so omit the unit and give the number.

Consider the worked cases shown below.
{"columns": ["compoundStructure", "measurementType", "dataValue"],
 "data": [
  ["N=C(N)c1ccc(C(=O)Nc2ccc(OCc3ccccc3)c(C(=O)NCCC(=O)O)c2)cc1", "IC50", 10],
  ["NCc1ccc(C(=O)Nc2cccc(C(=O)NCCC(=O)O)c2)cc1", "IC50", 160],
  ["NCCCCCCC(=O)Nc1cccc(C(=O)NCCC(=O)O)c1", "IC50", 460]
]}

Now for a further compound.
Q: Field: IC50 (fibrinogen receptor, glycoprotein IIb/IIIa (Homo sapiens, UniProt P05106+P08514)). Entry: "N=C(N)N1CCC(C(=O)Nc2cccc(C(=O)N[C@@H](CC(=O)O)C(=O)N[C@@H](Cc3ccccc3)C(=O)O)c2)CC1"
Result: 220

====

IC50 for assorted compounds
target: fibrinogen receptor, glycoprotein IIb/IIIa (Homo sapiens, UniProt P05106+P08514); construct: obtained from Triton X-100 extracts of human blood platelets; assay: inhibition of the binding of fibrinogen to the immobilized fibrinogen receptor (ELISA); conditions: fibrinogen binding to immobilized glycoprotein IIb/IIIa from human blood platelets, read-out: IC50 (inhibition of the binding of fibrinogen to the immobilized receptor by 50%)
Where a SMILES comes first, the peptide text is derived from it. [ ]: non-standard residue; d: D form. 3Abz = Nc1cccc(C(=O)O)c1
Your answer is read as µM, so omit the unit and give the number.

Consider the worked cases shown below.
{"columns": ["compound", "unitTag", "IC50"],
 "data": [
  ["N=C(N)NCCCCC(=O)Nc1ccc(OCc2ccccc2)c(C(=O)NCCC(=O)O)c1 [Example 47]", "µM", 0.18],
  ["N=C(N)NCc1ccc(C(=O)Nc2cccc(C(=O)NCCC(=O)O)c2)cc1 [Example 13]", "µM", 0.22],
  ["NCc1ccc(CC(=O)Nc2cccc(C(=O)NCCC(=O)O)c2)cc1 [Example 32]", "µM", 0.12]
]}

Q: Entry N=C(N)NCCCCC(=O)Nc1cccc(C(=O)NCCC(=O)O)c1 [Example 22] : reported IC50 = ?
Result: 0.25

Q: Entry N=C(N)NCC(=O)Nc1cccc(C(=O)NCCC(=O)O)c1 [Example 36] : reported IC50 = ?
Result: 0.27

Q: Entry N=C(N)c1ccc(C(=O)Nc2cccc(C(=O)NCCC(=O)O)c2)cc1 [Example 35] : reported IC50 = ?
Result: 0.0001

Q: Entry CC(C)[C@H](NC(=O)[C@H](CC(=O)O)NC(=O)c1cccc(NC(=O)[C@@H](N)CCCNC(=N)N)c1)C(=O)O [Example 14] (H-R[3Abz]DV-OH) : reported IC50 = ?
Result: 0.3

Q: Entry NCCCCC(=O)Nc1cccc(C(=O)NCCC(=O)O)c1 [Example 9] : reported IC50 = ?
Result: 0.24
